Listed here are compounds together with their documented Pre-emergence action against Lolium rigidum (LOLRI).
System: Lolium rigidum (LOLRI)
Test: Herbicidal pre-emergence action, test C (Table C2)
Assay type: in vivo
Details: dosage 1280 g/ha; visual scoring after about 3 weeks; 100% = plants have died, 0% = like control plants
Lab book: enter the figure in %, no units written.

Consider the worked cases shown below.
Cc1cccc(Oc2ncc(Cl)cc2F)c1-c1cc(C(F)F)no1 : 90
Fc1cccnc1Oc1cccc(F)c1-c1cc(C(F)F)no1 : 100
FC(F)c1cc(-c2c(Br)cccc2Oc2ccc(Cl)cn2)on1 : 100
N#Cc1cccc(Oc2ccc(Cl)cn2)c1-c1cc(C(F)F)no1 : 100

Could you now consider this next compound?
Enter reported Pre-emergence action against Lolium rigidum (LOLRI) observed with Lolium rigidum (LOLRI) for "Cn1nc(-c2c(F)cccc2Oc2ccc(Cl)cn2)cc1C(F)F"
90
